Values compiled from patent US5118682A.

# System: QT interval
# RUN_DESCRIPTION: class III antiarrhythmic action in guinea-pigs after intravenous administration (increase in QT interval, ECG)
# Format: in vivo, guinea-pigs (Pirbright white)
# TEST_PARAMETERS: Cavia porcellus, iv; anaesthetized guinea-pigs (urethane 1.5 g/kg i.p.), i.v., ECG extremity lead II, 4 to 6 animals per dose; dose for 20% increase in QT interval, calculated from log dose-response; read-out: Increase in QT interval ED 20%
Where a name gives a salt, the structure may show the parent alone.
# ED20 values compiled below

Guide cases for ED20, answers given:
INSERT INTO measurements (compound, measure_name, measured_result) VALUES
  ('COc1ccc(/C=C/C(=O)c2cc(C)c(OCCN3CCCCC3)c(C)c2)c(C)c1.O=C(O)/C=C/C(=O)O', 'ED20', '0.73 mg/kg'),
  ('Cc1ccccc1/C=C/C(=O)c1cc(C)c(OCCCN2CCCC2)c(C)c1.O=C(O)/C=C/C(=O)O', 'ED20', '0.89 mg/kg'),
  ('CCc1ccccc1C=CC(=O)c1cc(C)c(OCCN2CCOCC2)c(C)c1 [Example 18, hydrochloride]', 'ED20', '1.5 mg/kg'),
  ('COc1ccc(C=CC(=O)c2cc(C)c(OCCN3CCCC3)c(C)c2)c(C)c1', 'ED20', '1.5 mg/kg'),
  ('COc1ccccc1/C=C/C(=O)c1cc(C)c(OCCN2CCCC2)c(C)c1.O=C(O)/C=C/C(=O)O', 'ED20', '0.67 mg/kg');

Input line: Report ED20 for COc1ccccc1/C=C/C(=O)c1cc(C)c(OCCN2CCCCC2)c(C)c1.Cl please.
Output line: 1.69 mg/kg

Input line: Try this compound too: CCc1ccccc1CCC(=O)c1cc(C)c(OCCN2CCCCC2)c(C)c1
Output line: 1.62 mg/kg

Input line: Please answer likewise for CC(C)NCC(O)c1ccc(NS(C)(=O)=O)cc1 (single isomer, unassigned) [D-sotalol, reference compound]
Output line: 3.6 mg/kg
